The values you see were collected from patent US20140213531A1.

Biological target: Thrombin, from Human Plasma, high activity (human, UniProt P00734 328-622)
Assay: enzyme inhibition, pNA substrate
Bridges are numbered along the chain shown (N, C = ends). [ ]: non-standard residue; d: D form. Gly(octyl) = CCCCCCCC[C@H](N)C(=O)O; Pro(4NHCOPhe) = not defined here; Cha = N[C@@H](CC1CCCCC1)C(=O)O
propertyName: % inhibition at 100 µM

binder	reportedMeasurement
cyclo([Gly(octyl)]CTAS[Cha]P[Pro(4NHCOPhe)]QCQ[dP]P) (disulfide 2-10; not fully specified; reading uncertain, also called Ex. 160) [Example 160]	23%
XCTASIPPQCY (HELM PEPTIDE1{[CCCCCC[C@H](N[*:1])C(=O)[*:2]].C.T.A.S.I.P.P.Q.C.Y.[dP].P}$PEPTIDE1,PEPTIDE1,2:R3-10:R3|PEPTIDE1,PEPTIDE1,1:R1-13:R2$$$V2.0; SMILES CCCCCC[C@@H]1NC(=O)[C@@H]2CCCN2C(=O)[C@H]2CCCN2C(=O)[C@H](Cc2ccc(O)cc2)NC(=O)[C@@H]2CSSC[C@H](NC1=O)C(=O)N[C@@H]([C@@H](C)O)C(=O)N[C@@H](C)C(=O)N[C@@H](CO)C(=O)N[C@@H]([C@@H](C)CC)C(=O)N1CCC[C@H]1C(=O)N1CCC[C@H]1C(=O)N[C@@H](CCC(N)=O)C(=O)N2, also called Ex. 99) [Example 99]	0%
XCTASXPPQCY (HELM PEPTIDE1{[Nle].C.T.A.S.[Cha].P.P.Q.C.Y.[dP].P}$PEPTIDE1,PEPTIDE1,2:R3-10:R3|PEPTIDE1,PEPTIDE1,1:R1-13:R2$$$V2.0; SMILES CCCC[C@@H]1NC(=O)[C@@H]2CCCN2C(=O)[C@H]2CCCN2C(=O)[C@H](Cc2ccc(O)cc2)NC(=O)[C@@H]2CSSC[C@H](NC1=O)C(=O)N[C@@H]([C@@H](C)O)C(=O)N[C@@H](C)C(=O)N[C@@H](CO)C(=O)N[C@@H](CC1CCCCC1)C(=O)N1CCC[C@H]1C(=O)N1CCC[C@H]1C(=O)N[C@@H](CCC(N)=O)C(=O)N2, also called Ex. 141) [Example 141]	0%
cyclo([Gly(octyl)]ETASIPPQKY[dP]P) (also called Ex. 156) [Example 156]	17%
